# measuredOn: KDR (human, UniProt P35968 20-1356)
# Sequence (P35968 20-1356): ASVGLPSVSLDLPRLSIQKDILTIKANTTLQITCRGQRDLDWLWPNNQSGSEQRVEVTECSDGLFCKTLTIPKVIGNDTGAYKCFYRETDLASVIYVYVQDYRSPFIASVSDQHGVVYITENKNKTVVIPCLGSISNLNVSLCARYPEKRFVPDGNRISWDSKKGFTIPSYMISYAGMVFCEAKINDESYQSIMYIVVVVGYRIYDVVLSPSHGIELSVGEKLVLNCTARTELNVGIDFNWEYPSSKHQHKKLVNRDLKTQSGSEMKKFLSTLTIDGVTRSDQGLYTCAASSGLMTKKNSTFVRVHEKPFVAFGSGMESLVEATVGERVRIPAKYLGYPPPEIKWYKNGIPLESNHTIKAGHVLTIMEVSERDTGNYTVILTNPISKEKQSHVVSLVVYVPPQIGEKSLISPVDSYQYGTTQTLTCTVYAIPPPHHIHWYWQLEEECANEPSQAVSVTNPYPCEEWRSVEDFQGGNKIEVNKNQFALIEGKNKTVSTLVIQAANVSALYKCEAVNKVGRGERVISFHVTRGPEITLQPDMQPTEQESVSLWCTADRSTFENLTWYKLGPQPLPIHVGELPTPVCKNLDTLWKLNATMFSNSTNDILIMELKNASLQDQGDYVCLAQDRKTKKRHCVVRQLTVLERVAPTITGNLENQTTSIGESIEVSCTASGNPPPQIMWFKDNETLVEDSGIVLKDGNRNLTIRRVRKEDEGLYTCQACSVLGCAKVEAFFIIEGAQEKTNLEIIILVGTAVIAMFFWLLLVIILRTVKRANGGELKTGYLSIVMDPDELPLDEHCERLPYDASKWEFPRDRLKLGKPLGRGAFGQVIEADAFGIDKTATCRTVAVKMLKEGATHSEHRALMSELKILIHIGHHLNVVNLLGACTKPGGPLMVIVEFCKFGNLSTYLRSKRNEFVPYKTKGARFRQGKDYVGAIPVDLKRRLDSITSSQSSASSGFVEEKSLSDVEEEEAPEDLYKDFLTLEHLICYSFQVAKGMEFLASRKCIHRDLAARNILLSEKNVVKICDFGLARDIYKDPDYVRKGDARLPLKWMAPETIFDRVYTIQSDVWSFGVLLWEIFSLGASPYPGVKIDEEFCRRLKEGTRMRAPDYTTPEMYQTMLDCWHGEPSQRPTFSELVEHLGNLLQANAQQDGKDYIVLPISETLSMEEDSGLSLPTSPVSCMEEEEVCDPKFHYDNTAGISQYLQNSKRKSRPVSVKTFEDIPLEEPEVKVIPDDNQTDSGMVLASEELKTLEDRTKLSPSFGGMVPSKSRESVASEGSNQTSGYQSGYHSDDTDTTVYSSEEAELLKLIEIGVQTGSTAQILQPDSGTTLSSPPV
# protocolDescription: cell-based or functional assay
endpointLabel: % of Max VEGF KDR pTyr Activity (at 133 nM antibody concentration), Average (%)
# value in %; strip the unit string

| binder | resultNumber |
| --- | --- |
| 24C9 (antibody, V domains shown) VH: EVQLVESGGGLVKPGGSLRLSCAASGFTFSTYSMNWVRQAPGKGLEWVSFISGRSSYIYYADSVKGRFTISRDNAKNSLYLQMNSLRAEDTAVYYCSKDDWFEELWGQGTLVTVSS VL: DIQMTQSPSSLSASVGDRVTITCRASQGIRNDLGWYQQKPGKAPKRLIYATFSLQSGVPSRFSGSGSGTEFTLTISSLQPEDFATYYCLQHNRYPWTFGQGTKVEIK | 13 |
| 29H3 (antibody, V domains shown) VH: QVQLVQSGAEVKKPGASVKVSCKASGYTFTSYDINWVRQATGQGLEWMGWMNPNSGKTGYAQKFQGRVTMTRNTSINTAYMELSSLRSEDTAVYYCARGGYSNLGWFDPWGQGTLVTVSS VL: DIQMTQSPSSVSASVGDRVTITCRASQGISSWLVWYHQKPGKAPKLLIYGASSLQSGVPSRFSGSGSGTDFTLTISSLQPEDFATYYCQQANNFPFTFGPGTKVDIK | 16 |
| 33B1 (antibody, V domains shown) VH: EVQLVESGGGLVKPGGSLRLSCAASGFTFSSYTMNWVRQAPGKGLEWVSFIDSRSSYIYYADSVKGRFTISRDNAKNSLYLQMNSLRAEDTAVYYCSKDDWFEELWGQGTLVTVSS VL: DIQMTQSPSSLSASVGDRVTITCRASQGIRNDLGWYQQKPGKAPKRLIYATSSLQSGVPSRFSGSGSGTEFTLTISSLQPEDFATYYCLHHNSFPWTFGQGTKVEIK | 7 |

Record 29F7 (antibody, V domains shown) VH: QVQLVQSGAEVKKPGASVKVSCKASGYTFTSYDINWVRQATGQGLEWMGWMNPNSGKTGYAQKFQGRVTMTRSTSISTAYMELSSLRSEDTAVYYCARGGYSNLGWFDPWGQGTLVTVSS VL: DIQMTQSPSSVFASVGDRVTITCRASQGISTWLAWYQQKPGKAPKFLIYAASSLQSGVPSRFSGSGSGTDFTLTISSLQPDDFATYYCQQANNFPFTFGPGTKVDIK . Reported % of Max VEGF KDR pTyr Activity (at 133 nM antibody concentration), Average: 16
